# Tested on: Enterococcus faecium
# Measurement protocol: Antibacterial activity against Enterococcus faecium clinical isolate 20-16 assessed as inhibition of bacterial growth incubated for 24 hrs by CLSI protocol based broth microdilution method
# Type: functional
Measured property: MIC

response.value for `CN[C@H](CC(C)C)C(=O)N[C@H]1C(=O)N[C@@H](CC(N)=O)C(=O)N[C@H]2C(=O)N[C@H]3C(=O)N[C@H](C(=O)N[C@H](C(=O)NCCCc4cn(Cc5ccc(Cl)c(Cl)c5)nn4)c4cc(O)cc(O)c4-c4cc3ccc4O)[C@H](O)c3ccc(c(Cl)c3)Oc3cc2cc(c3O[C@@H]2O[C@H](CO)[C@@H](O)[C@H](O)[C@H]2O[C@H]2C[C@](C)(N)[C@H](O)[C@H](C)O2)Oc2ccc(cc2Cl)[C@H]1O` (field: MIC) = 0.06 µg/mL

The recorded MIC for `CN[C@H](CC(C)C)C(=O)N[C@H]1C(=O)N[C@@H](CC(N)=O)C(=O)N[C@H]2C(=O)N[C@H]3C(=O)N[C@H](C(=O)N[C@H](C(=O)O)c4cc(O)cc(O)c4-c4cc3ccc4O)[C@H](O)c3ccc(c(Cl)c3)Oc3cc2cc(c3O[C@@H]2O[C@H](CO)[C@@H](O)[C@H](O)[C@H]2O[C@H]2C[C@](C)(NCc3ccc(C#Cc4ccccc4)cc3)[C@H](O)[C@H](C)O2)Oc2ccc(cc2Cl)[C@H]1O` is ≤ 0.015 µg/mL

What the record says about C[C@H]1COc2c(N3CCN(C)CC3)c(F)cc3c(=O)c(C(=O)O)cn1c23 [LEVOFLOXACIN ANHYDROUS] : MIC is 64 µg/mL

GET /value?item= `CN[C@H](CC(C)C)C(=O)N[C@H]1C(=O)N[C@@H](CC(N)=O)C(=O)N[C@H]2C(=O)N[C@H]3C(=O)N[C@H](C(=O)N[C@H](C(=O)O)c4cc(O)cc(O)c4-c4cc3ccc4O)[C@H](O)c3ccc(c(Cl)c3)Oc3cc2cc(c3O[C@@H]2O[C@H](CO)[C@@H](O)[C@H](O)[C@H]2O[C@H]2C[C@](C)(NCCCc3cn(C4CN(C(c5ccccc5)c5ccccc5)C4)nn3)[C@H](O)[C@H](C)O2)Oc2ccc(cc2Cl)[C@H]1O` &field=MIC returns ≤ 0.03 µg/mL

Lab note: measured MIC of `CN[C@H](CC(C)C)C(=O)N[C@H]1C(=O)N[C@@H](CC(N)=O)C(=O)N[C@H]2C(=O)N[C@H]3C(=O)N[C@H](C(=O)N[C@H](C(=O)O)c4cc(O)cc(O)c4-c4cc3ccc4O)[C@H](O)c3ccc(c(Cl)c3)Oc3cc2cc(c3O[C@@H]2O[C@H](CO)[C@@H](O)[C@H](O)[C@H]2O[C@H]2C[C@](C)(NCc3ccc(Oc4cc(Cl)cc(Cl)c4)cc3)[C@H](O)[C@H](C)O2)Oc2ccc(cc2Cl)[C@H]1O` was 0.03 µg/mL
